Each recorded value in this set is attributed to the supplement of paper PMC10567573.

# protein stability index annotations
B1: ZNF511 (parent)
chain: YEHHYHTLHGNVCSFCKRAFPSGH

Variants of: B1
measurementDescription: protein stability index of a GFP-peptide fusion (GPS, HEK-293T) (PSI 1-6); higher = more stable;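 further: lentivirally expressed fusions sorted by FACS into six bins by GFP to DsRed ratio, PSI derived from sequencing read proportions per bin multiplied by bin number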
appliedConditions: c terminus: a fixed tail appended
observable: protein stability index

>>> result("YEHHYHTLHGNVCSFCKRAFPSGK [H24K]")
1.57
>>> result("YEHHYHTLHGNVCSFCKRAFPSVH [G23V]")
1.61
>>> result("YEHHYHTLHGNVCSFCKRAFPWGH [S22W]")
1.47
>>> result("YEHHYHTLHGNVCSFCPRAFPSGH [K17P]")
1.78
>>> result("YEHHNHTLHGNVCSFCKRAFPSGH [Y5N]")
3.01
>>> result("YEHHYHTLHGNVCSFCKRAFFSGH [P21F]")
2.13
>>> result("YEHHYHTLHGNVQSFCKRAFPSGH [C13Q]")
2.63
>>> result("YEHHYHTLHGNVCSFCFRAFPSGH [K17F]")
1.84
>>> result("YEHHYHTLHGNVCSFCKRAFPSGS [H24S]")
2.46
>>> result("YEHHYLTLHGNVCSFCKRAFPSGH [H6L]")
1.72
>>> result("YEHHYHTLHGNVASFCKRAFPSGH [C13A]")
2.18
>>> result("YEHHYHTMHGNVCSFCKRAFPSGH [L8M]")
2.12
>>> result("YEHHYHWLHGNVCSFCKRAFPSGH [T7W]")
1.75
>>> result("YEHHYHTLHGNVCSFCKHAFPSGH [R18H]")
2.29
>>> result("YYHHYHTLHGNVCSFCKRAFPSGH [E2Y]")
2.27
>>> result("YELHYHTLHGNVCSFCKRAFPSGH [H3L]")
2.13
>>> result("YEHHYHTLHGNVDSFCKRAFPSGH [C13D]")
2.29
>>> result("YEHHYHHLHGNVCSFCKRAFPSGH [T7H]")
2.46
>>> result("YEHHYHTLHGNVCSFCKRAFPSHH [G23H]")
1.38
>>> result("YEHHYHTLHGNVCSFCKRFFPSGH [A19F]")
2.84
>>> result("YEHHYHTLHGNVCYFCKRAFPSGH [S14Y]")
3.38
>>> result("YEHHYHTLHGNVCSFCKRAFPSGR [H24R]")
2.08
>>> result("YEHHYHTLHGNVCSFCKRATPSGH [F20T]")
2.68
>>> result("YEHHYHTLHGNVCSFCKRAHPSGH [F20H]")
3.37
>>> result("CEHHYHTLHGNVCSFCKRAFPSGH [Y1C]")
4.05
>>> result("YEHHYHTLHGDVCSFCKRAFPSGH [N11D]")
2.75
>>> result("YEHHYHTLKGNVCSFCKRAFPSGH [H9K]")
2.77
>>> result("YEHHYHTLHGNVCSFCKRAFPTGH [S22T]")
2.27
>>> result("YEHHYHTLHHNVCSFCKRAFPSGH [G10H]")
1.87
>>> result("YEHHYHTLHGNVCSFCKRAFASGH [P21A]")
2.6
>>> result("YEHHYATLHGNVCSFCKRAFPSGH [H6A]")
1.88
>>> result("YEHHYHTLHGGVCSFCKRAFPSGH [N11G]")
2.12
>>> result("YEHHYHTLHGNVVSFCKRAFPSGH [C13V]")
1.92
>>> result("YEHHYHTLHGNVCSFCKRAFPSLH [G23L]")
1.63
>>> result("YEGHYHTLHGNVCSFCKRAFPSGH [H3G]")
3.04
>>> result("YEHHYHTLHGNVCSFCKVAFPSGH [R18V]")
1.73
>>> result("YEHHYHTLHGNVCSFCKRAFKSGH [P21K]")
1.9
>>> result("YEHHYHTLHGNVRSFCKRAFPSGH [C13R]")
2.17
>>> result("YEHHYHTFHGNVCSFCKRAFPSGH [L8F]")
2.62
>>> result("YTHHYHTLHGNVCSFCKRAFPSGH [E2T]")
3.14
>>> result("YEHHYHTLFGNVCSFCKRAFPSGH [H9F]")
1.68
>>> result("YEHHYHTLHGNVCSFCKRAVPSGH [F20V]")
2.58
>>> result("YEHHYHTLHGNVCSFCKRYFPSGH [A19Y]")
2.25
>>> result("YEHHYHTLHSNVCSFCKRAFPSGH [G10S]")
1.97
>>> result("YEHHYHTLHGNVCSFCKRAEPSGH [F20E]")
2.4
>>> result("YEHHYHTLHGNVCSFCKRAFPSGP [H24P]")
2.08
>>> result("YEHHYHTLHGNVESFCKRAFPSGH [C13E]")
2.36
>>> result("YEHHYHTLHGNVCSFCKRAFPSGC [H24C]")
2.07
>>> result("YEHHYHTLPGNVCSFCKRAFPSGH [H9P]")
2.72
>>> result("YEHHYCTLHGNVCSFCKRAFPSGH [H6C]")
2.6
>>> result("YEHHYHTLHGNVCSFCKRAFPEGH [S22E]")
2.44
>>> result("YEHHYHTLHRNVCSFCKRAFPSGH [G10R]")
1.59
>>> result("YEHHYHTLHGNVCSFCKRAFPSGG [H24G]")
2.09
>>> result("YEHHYHTLHGNTCSFCKRAFPSGH [V12T]")
2.44
>>> result("VEHHYHTLHGNVCSFCKRAFPSGH [Y1V]")
2.51
>>> result("YEHHYHTLHGNVCSFCKRWFPSGH [A19W]")
2.25
>>> result("YEHHYHTLHGNVPSFCKRAFPSGH [C13P]")
2.11
>>> result("YEHHYHTLHGNVCSFCKRANPSGH [F20N]")
3.13
>>> result("YEHHYHTLHGNVCSFCKLAFPSGH [R18L]")
2.17
>>> result("YEHHMHTLHGNVCSFCKRAFPSGH [Y5M]")
2.39
>>> result("YEHHYHTLHGNVCSFCKDAFPSGH [R18D]")
2.46
